Test system: MDA-MB-361
Experiment notes: cells
Type: functional, cell-based
Experimental parameters: Homo sapiens
Listed next: entries and their corresponding pIC50.
Would you please state pIC50, meaning minus log10 of the concentration in mol/L, as a bare number?

Here is how some molecules turned out for pIC50.
[[record]]
smiles_repr = "Fc1cc(-c2cc[nH]/c(=N/c3ccc(-n4cnc(N5CCOCC5)n4)cc3)n2)cc(N2CCOCC2)c1"
system_under_test = "MDA-MB-361"
test_result = 5.97

[[record]]
smiles_repr = "NC(=O)c1ncn([C@@H]2O[C@H](COP(=O)(O)O)[C@@H](O)[C@H]2O)c1N"
system_under_test = "MDA-MB-361"
test_result = 2.88


Now consider a different molecule.
Report pIC50 under test system MDA-MB-361 for C/C=C(/C)C(=O)O[C@H]1C(C)=C2[C@H]([C@@H]1OC(=O)CCCCCCC)[C@@](C)(OC(C)=O)C[C@H](OC(=O)CCC)[C@@]1(O)[C@H]2OC(=O)[C@@]1(C)O . 8.33

----------
Test system: Capan-2;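 further: Capan-2 cell growth inhibition, read out with a viability assay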
Experiment notes: cells
Format: functional, cell-based
Experimental parameters: Homo sapiens
Description: SANGER: Inhibition of human Capan-2 cell growth in a cell viability assay.
pIC50: −log10 of the molar value.
Listed next: entries and their corresponding pIC50.

Here is how some compounds turned out for pIC50.
[[record]]
smiles_repr = "CC[C@]1(O)C[C@@H]2CN(CCc3c([nH]c4ccccc34)[C@@](C(=O)OC)(c3cc4c(cc3OC)N(C)[C@H]3[C@@](O)(C(=O)OC)[C@H](OC(C)=O)[C@]5(CC)C=CCN6CC[C@]43[C@@H]65)C2)C1"
test_result = "< 7.00"

[[record]]
smiles_repr = "C[C@]1(c2nc3c(C(N)=O)cccc3[nH]2)CCCN1"
test_result = "< 5.30"


Kindly indicate its recorded pIC50. Item: C/C=C(/C)C(=O)O[C@H]1C(C)=C2[C@H]([C@@H]1OC(=O)CCCCCCC)[C@@](C)(OC(C)=O)C[C@H](OC(=O)CCC)[C@@]1(O)[C@H]2OC(=O)[C@@]1(C)O > 8.70

Kindly indicate its recorded pIC50. Item: CC(=O)c1c(C)c2cnc(Nc3ccc(N4CCNCC4)cn3)nc2n(C2CCCC2)c1=O < 5.40

Kindly indicate its recorded pIC50. Item: COc1cc(Nc2c(C#N)cnc3cc(OCCCN4CCN(C)CC4)c(OC)cc23)c(Cl)cc1Cl < 5.70

----------
Listed next: entries and their corresponding IC50.
System: NCI-H650;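 further: growth inhibition of NCI-H650 cells, read out by a viability assay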
Experiment notes: cells
Type: functional, cell-based
Experimental parameters: Homo sapiens
Description: SANGER: Inhibition of human NCI-H650 cell growth in a cell viability assay.

Here is how some compounds turned out for IC50.
[[record]]
compound = "CC(O)(CS(=O)(=O)c1ccc(F)cc1)C(=O)Nc1ccc(C#N)c(C(F)(F)F)c1 (centres undefined) [BICALUTAMIDE]"
test_result = "> 1.02 µM"

[[record]]
compound = "C/C(O)=C(\\C#N)C(=O)Nc1cc(Br)ccc1Br"
test_result = "> 16 µM"

[[record]]
compound = "N#C/C(=C1/Nc2ccccc2S1)c1ccnc(NCCc2cccnc2)n1"
test_result = "> 8 µM"


Now consider a different compound.
Kindly indicate its recorded IC50. Item: O=c1cc(N2CCOCC2)oc2c(-c3cccc4c3sc3ccccc34)cccc12 > 2 µM

----------
Listed next: entries and their corresponding IC50.
Test system: EFM-19;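 further: growth inhibition of human EFM-19 cells, measured in a cell viability assay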
Experiment notes: cells
Type: functional, cell-based
Experimental parameters: Homo sapiens
Description: SANGER: Inhibition of human EFM-19 cell growth in a cell viability assay.

Here is how some compounds turned out for IC50.
[[record]]
compound = "C/C(O)=C(\\C#N)C(=O)Nc1cc(Br)ccc1Br"
value_kind = "IC50"
test_result = "> 16000 nM"

[[record]]
compound = "CC[C@]1(O)C[C@@H]2CN(CCc3c([nH]c4ccccc34)[C@@](C(=O)OC)(c3cc4c(cc3OC)N(C)[C@H]3[C@@](O)(C(=O)OC)[C@H](OC(C)=O)[C@]5(CC)C=CCN6CC[C@]43[C@@H]65)C2)C1 [VINBLASTINE]"
value_kind = "IC50"
test_result = "5.24 nM"

[[record]]
compound = "CCCS(=O)(=O)Nc1ccc(F)c(C(=O)c2c[nH]c3ncc(Cl)cc23)c1F [PLX-4720]"
value_kind = "IC50"
test_result = "> 10000 nM"

[[record]]
compound = "COc1cc(Nc2c(C#N)cnc3cc(OCCCN4CCN(C)CC4)c(OC)cc23)c(Cl)cc1Cl [BOSUTINIB]"
value_kind = "IC50"
test_result = "> 2000 nM"


Now consider a different compound.
Report IC50 under test system EFM-19 for C/C=C(/C)C(=O)O[C@H]1C(C)=C2[C@H]([C@@H]1OC(=O)CCCCCCC)[C@@](C)(OC(C)=O)C[C@H](OC(=O)CCC)[C@@]1(O)[C@H]2OC(=O)[C@@]1(C)O [THAPSIGARGIN] . > 512 nM

----------
Test system: TYK-nu;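 further: growth inhibition of human TYK-nu cells, read out by a cell viability assay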
Experiment notes: cells
Format: functional, cell-based
Experimental parameters: Homo sapiens
Description: SANGER: Inhibition of human TYK-nu cell growth in a cell viability assay.
Value kind: pIC50
Would you please state pIC50, meaning minus log10 of the concentration in mol/L, as a bare number?

Here is how some compounds turned out for pIC50.
[[record]]
compound = "CC(=O)c1c(C)c2cnc(Nc3ccc(N4CCNCC4)cn3)nc2n(C2CCCC2)c1=O [PALBOCICLIB]"
value_kind = "pIC50"
test_result = 6.00

[[record]]
compound = "N#C/C(=C1/Nc2ccccc2S1)c1ccnc(NCCc2cccnc2)n1"
value_kind = "pIC50"
test_result = 5.76


Now consider a different compound.
Kindly indicate its recorded pIC50. Item: Cn1c(=O)n(-c2ccc(C(C)(C)C#N)cc2)c2c3cc(-c4cnc5ccccc5c4)ccc3ncc21 [DACTOLISIB] 8.00

----------
Listed next: entries and their corresponding IC50.
Test system: MHH-NB-11
Experiment notes: cells
Type: functional, cell-based
Experimental parameters: Homo sapiens
Description: SANGER: Inhibition of human MHH-NB-11 cell growth in a cell viability assay.

Here is how some compounds turned out for IC50.
[[record]]
compound = "NC(=O)c1ncn([C@@H]2O[C@H](COP(=O)(O)O)[C@@H](O)[C@H]2O)c1N"
test_result = "1110 µM"

[[record]]
compound = "Cc1[nH]c(/C=C2\\C(=O)Nc3ccc(S(=O)(=O)Cc4c(Cl)cccc4Cl)cc32)c(C)c1C(=O)N1CCC[C@@H]1CN1CCCC1"
test_result = "> 2 µM"


Report IC50 under test system MHH-NB-11 for C/C(O)=C(\C#N)C(=O)Nc1cc(Br)ccc1Br . > 16 µM

Report IC50 under test system MHH-NB-11 for Cc1ccc(NC(=O)c2cccc(C(C)(C)C#N)c2)cc1Nc1ccc2ncn(C)c(=O)c2c1 . > 4 µM

Report IC50 under test system MHH-NB-11 for O=c1cc(N2CCOCC2)oc2c(-c3cccc4c3sc3ccccc34)cccc12 . > 2 µM

Report IC50 under test system MHH-NB-11 for Cc1nc(Nc2ncc(C(=O)Nc3c(C)cccc3Cl)s2)cc(N2CCN(CCO)CC2)n1 . > 1.28 µM

Report IC50 under test system MHH-NB-11 for CCn1c(-c2nonc2N)nc2cnc(Oc3cccc(NC(=O)c4ccc(OCCN5CCOCC5)cc4)c3)cc21 [GSK-269962A] . 0.0669 µM

Report IC50 under test system MHH-NB-11 for CCNc1cc(N[C@H]2CC[C@@H](O)CC2)nc(Nc2ccc3c(ccn3Cc3ccccc3)c2)n1 . > 5.12 µM

Report IC50 under test system MHH-NB-11 for Cn1c(=O)n(-c2ccc(C(C)(C)C#N)cc2)c2c3cc(-c4cnc5ccccc5c4)ccc3ncc21 . 0.629 µM

Report IC50 under test system MHH-NB-11 for COc1cc(C)c(Sc2cnc(NC(=O)c3ccc(CNC(C)C(C)(C)C)cc3)s2)cc1C(=O)N1CCN(C(C)=O)CC1 (stereo not given) . > 10.2 µM

----------
System: RO82-W-1;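 further: growth inhibition of human RO82-W-1 cells, measured with a cell viability assay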
Experiment notes: cells
Format: functional, cell-based
Experimental parameters: Homo sapiens
Description: SANGER: Inhibition of human RO82-W-1 cell growth in a cell viability assay.
Listed next: entries and their corresponding IC50.

Here is how some molecules turned out for IC50.
[[record]]
smiles_repr = "N#C/C(=C1/Nc2ccccc2S1)c1ccnc(NCCc2cccnc2)n1"
system_under_test = "RO82-W-1"
value_kind = "IC50"
test_result = "> 8 µM"

[[record]]
smiles_repr = "CO[C@@]12[C@H](COC(N)=O)C3=C(C(=O)C(C)=C(N)C3=O)N1C[C@@H]1N[C@@H]12"
system_under_test = "RO82-W-1"
value_kind = "IC50"
test_result = "13.3 µM"


Now consider a different molecule.
Kindly indicate its recorded IC50. Item: CCNC(=O)c1noc(-c2cc(C(C)C)c(O)cc2O)c1-c1ccc(CN2CCOCC2)cc1 > 0.256 µM

----------
Listed next: entries and their corresponding IC50.
System: GI-1;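 further: growth inhibition of human GI-1 cells, measured with a cell viability readout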
Experiment notes: cells
Type: functional, cell-based
Experimental parameters: Homo sapiens
Description: SANGER: Inhibition of human GI-1 cell growth in a cell viability assay.
Please reply with the bare figure in nM and do not write the unit itself.

Here is how some compounds turned out for IC50.
[[record]]
smiles_repr = "CCNC(=O)c1noc(-c2cc(C(C)C)c(O)cc2O)c1-c1ccc(CN2CCOCC2)cc1"
test_result = 148

[[record]]
smiles_repr = "Fc1cc(-c2cc[nH]/c(=N/c3ccc(-n4cnc(N5CCOCC5)n4)cc3)n2)cc(N2CCOCC2)c1"
test_result = 171

[[record]]
smiles_repr = "N#C/C(=C1/Nc2ccccc2S1)c1ccnc(NCCc2cccnc2)n1"
test_result = 3710


Now consider a different compound.
Kindly indicate its recorded IC50. Item: CC[C@@]1(O)C(=O)OCc2c1cc1n(c2=O)Cc2cc3ccccc3nc2-1 3.37
